tested target: T1, human MuSK (human, UniProt O15146 24-495)
T1 construct: Recombinant protein coated on ELISA plates (R&D Systems cat. 10189-MK) or on the Biacore chip; also called human muscle-specific tyrosine protein kinase; full length human MuSK
T1 sequence: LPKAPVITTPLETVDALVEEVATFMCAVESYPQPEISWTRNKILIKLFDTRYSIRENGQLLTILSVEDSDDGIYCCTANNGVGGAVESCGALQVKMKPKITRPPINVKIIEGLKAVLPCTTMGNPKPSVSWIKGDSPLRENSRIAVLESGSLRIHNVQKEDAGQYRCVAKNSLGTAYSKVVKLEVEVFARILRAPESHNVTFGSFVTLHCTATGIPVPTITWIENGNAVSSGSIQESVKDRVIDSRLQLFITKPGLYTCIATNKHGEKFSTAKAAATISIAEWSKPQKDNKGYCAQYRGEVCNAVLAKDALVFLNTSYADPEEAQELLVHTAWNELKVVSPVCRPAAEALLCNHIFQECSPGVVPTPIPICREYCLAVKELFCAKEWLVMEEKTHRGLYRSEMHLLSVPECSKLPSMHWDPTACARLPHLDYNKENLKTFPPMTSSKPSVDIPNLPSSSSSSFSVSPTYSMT
assay protocol: Biacore T200, MuSK on chip (200RU), 22.2 nM Fab, dissociation pH 5.5
observable: koff (s⁻¹)
Hi! Could you send only the number? It should be in s⁻¹, unit omitted.

Q: Give the measured koff of 3B2g2m1 Fab (Fab, V domains shown, Fab format) VH: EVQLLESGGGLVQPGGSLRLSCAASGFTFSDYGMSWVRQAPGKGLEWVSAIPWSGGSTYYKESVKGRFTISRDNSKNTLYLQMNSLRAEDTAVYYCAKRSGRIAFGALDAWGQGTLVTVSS VL: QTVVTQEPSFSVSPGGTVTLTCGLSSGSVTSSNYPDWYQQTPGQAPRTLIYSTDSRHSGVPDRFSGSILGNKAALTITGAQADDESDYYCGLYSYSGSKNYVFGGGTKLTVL .
Result: 0.0288
